Assay System: S. aureus DnaE (DNA polymerase III α-subunit homolog from Staphylococcus aureus) (Staphylococcus aureus, UniProt Q5HF71)
Construct: SaDnaE (S. aureus DnaE residues 1-1065); 6xHis (N); made in house; host or cells: E. coli BL21-AI
Sequence (Q5HF71 whole entry, the tested form may be a part): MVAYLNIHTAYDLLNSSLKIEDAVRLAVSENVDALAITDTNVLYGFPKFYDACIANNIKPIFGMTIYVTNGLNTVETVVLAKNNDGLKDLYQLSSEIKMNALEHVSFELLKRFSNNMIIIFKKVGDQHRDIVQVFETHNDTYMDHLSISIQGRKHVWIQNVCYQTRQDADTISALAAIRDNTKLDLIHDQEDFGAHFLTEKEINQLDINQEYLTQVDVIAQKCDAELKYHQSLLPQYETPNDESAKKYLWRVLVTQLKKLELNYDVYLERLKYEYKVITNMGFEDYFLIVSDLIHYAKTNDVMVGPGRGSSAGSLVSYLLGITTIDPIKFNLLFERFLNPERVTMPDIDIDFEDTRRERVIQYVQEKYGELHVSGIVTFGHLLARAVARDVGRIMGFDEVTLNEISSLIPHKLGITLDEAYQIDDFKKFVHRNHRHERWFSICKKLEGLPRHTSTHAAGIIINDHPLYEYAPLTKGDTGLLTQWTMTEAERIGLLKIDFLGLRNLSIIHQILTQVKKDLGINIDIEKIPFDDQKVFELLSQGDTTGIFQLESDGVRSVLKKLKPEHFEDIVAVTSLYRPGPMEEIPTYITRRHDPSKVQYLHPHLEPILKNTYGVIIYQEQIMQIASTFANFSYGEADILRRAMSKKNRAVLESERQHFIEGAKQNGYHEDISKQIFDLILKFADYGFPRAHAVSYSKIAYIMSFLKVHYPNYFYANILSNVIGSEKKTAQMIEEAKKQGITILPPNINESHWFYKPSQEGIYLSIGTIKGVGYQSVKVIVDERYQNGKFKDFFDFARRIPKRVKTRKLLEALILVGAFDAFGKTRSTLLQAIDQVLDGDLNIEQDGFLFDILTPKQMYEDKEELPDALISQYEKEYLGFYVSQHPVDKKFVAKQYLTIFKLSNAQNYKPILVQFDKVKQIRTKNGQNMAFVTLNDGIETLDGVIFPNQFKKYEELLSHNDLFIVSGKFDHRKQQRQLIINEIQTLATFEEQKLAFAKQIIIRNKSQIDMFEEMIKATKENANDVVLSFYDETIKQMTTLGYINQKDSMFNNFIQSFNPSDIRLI
Test: biochemical
Assay type: biochemical
Test Context: S. aureus DnaE IC50
Result Type: pIC50
Interpret pIC50 as the negative base-10 log of the concentration measured in mol/L.

Task: Dear colleague, I am looking for the recorded pIC50 of the following compound: `CO[C@H]1C[C@H]2C=C[C@H]3[C@H]4O[C@]2(/C(C)=C/[C@@H](C)[C@@H]([C@@H](C)OC(=O)NC(=O)C(Cl)(Cl)Cl)OC1=O)[C@@H]3[C@H](OC(=O)NC(=O)C(Cl)(Cl)Cl)[C@@H](C)[C@H]4OC(=O)c1ccc[nH]1`
Output: 4.46
